System: PAF Induced Bronchoconstriction
assay-notes: PAF induced bronchoconstriction assay, oral testing
Type: in vivo, guinea pig
condition-notes: Cavia porcellus, po; Table I; at a dose of 0.3 mg/kg p.o., 2 hr
property: inhibition in vivo at 0.3 mg/kg (%)
Could you give me the number in %? Just the number is fine.

Please review the entries below; each comes with its answer.
{"columns": ["compound", "inhibition in vivo at 0.3 mg/kg, %"],
 "data": [
  ["Cc1nnc2n1-c1sc(C#CCC34CCCc5cccc(c53)NC4=O)cc1C(c1ccccc1Cl)=NC2 (centres unmarked)", 24],
  ["Cc1nnc2n1-c1sc(C#CCn3cnc4c3c(=O)n(C)c(=O)n4C)cc1C(c1ccccc1Cl)=NC2", 27]
]}

Given "Cc1nnc2n1-c1sc(C#CCn3c(=O)c4c(ncn4C)n(C)c3=O)cc1C(c1ccccc1Cl)=NC2" , respond with its inhibition in vivo at 0.3 mg/kg.
38

Specify measured inhibition in vivo at 0.3 mg/kg for "Cc1nnc2n1-c1sc(C#Cc3ccccn3)cc1C(c1ccccc1Cl)=NC2" .
5

Look up inhibition in vivo at 0.3 mg/kg of "Cc1nnc2n1-c1sc(C#CCOc3ccccc3)cc1C(c1ccccc1Cl)=NC2" and report it.
67

State its inhibition in vivo at 0.3 mg/kg: "Cc1nnc2n1-c1sc(C#CCN3C(=O)c4ccccc4S3(=O)=O)cc1C(c1ccccc1Cl)=NC2"
27

Give the measured inhibition in vivo at 0.3 mg/kg for "Cc1nnc2n1-c1sc(C#CCn3nc4ccccn4c3=O)cc1C(c1ccccc1Cl)=NC2"
79

Find the measured inhibition in vivo at 0.3 mg/kg of "C#Cc1cc2c(s1)-n1c(C)nnc1CN=C2c1ccccc1Cl" and report it.
17

###

tested-on: PAF-binding, dog platelets (Canis lupus familiaris)
Construct: dog platelets; from tissue; host or cells: washed platelets from citrated dog blood
Sequence (A0A8I3NSH0 1-343): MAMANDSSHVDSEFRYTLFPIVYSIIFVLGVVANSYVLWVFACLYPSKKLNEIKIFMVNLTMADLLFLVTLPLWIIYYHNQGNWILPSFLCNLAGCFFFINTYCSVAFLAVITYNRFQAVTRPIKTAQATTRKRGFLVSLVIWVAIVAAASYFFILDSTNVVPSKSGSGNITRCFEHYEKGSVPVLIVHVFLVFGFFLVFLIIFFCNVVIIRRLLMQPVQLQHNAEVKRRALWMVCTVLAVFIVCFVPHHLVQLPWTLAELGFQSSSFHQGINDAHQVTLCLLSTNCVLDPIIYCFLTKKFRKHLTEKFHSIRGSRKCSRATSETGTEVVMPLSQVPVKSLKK
assay-notes: PAF binding assay (radiolabelled H-PAF, washed dog platelets)
condition-notes: Table II, triazolobenzodiazepines, 10 minutes at room temperature, read-out: PAF-binding IC-50
Just a reminder that ties go to no: only IC50 strictly below 20 nM counts as yes.

Worked examples, 3 molecules total:
{"columns": ["molecule", "assigned-class"],
 "data": [
  ["Cc1nnc2n1-c1ccc(C#CCN3C(=O)Cc4ccccc43)cc1C(c1ccccc1Cl)=NC2", "yes"],
  ["Cc1nnc2n1-c1ccc(C#CCOc3ccccc3)cc1C(c1ccccc1Cl)=NC2", "yes"],
  ["Cc1nnc2n1-c1ccc(C#CCN3C(=O)C4CC=CCC4C3=O)cc1C(c1ccccc1F)=NC2 (stereo not drawn)", "no"]
]}

Quick check: does "Cc1nnc2n1-c1ccc(C#CCOc3cccnc3)cc1C(c1ccccc1Cl)=NC2" have IC50 under 20 nM?
no

Is it true that IC50 reported for "Cc1nnc2n1-c1ccc(C#CCn3cnc4ccccc43)cc1C(c1ccccc1Cl)=NC2" is less than 20 nM?
yes

Does the reported IC50 of the following molecule sit strictly below 20 nM? "CCc1nnc2n1-c1ccc(C#CCN3C(=O)c4ccccc4C3=O)cc1C(c1ccccc1F)=NC2"
no

Bench note: check whether Cc1nnc2n1-c1ccc(C#CCN3C(=O)C4CCCN4C3=O)cc1C(c1ccccc1F)=NC2 (stereo not drawn) shows IC50 below 20 nM
no

Given the entry "Cc1nnc2n1-c1ccc(C#CCn3cnc4ccccc4c3=O)cc1C(c1ccccc1F)=NC2" , would its reported IC50 be below 20 nM?
no

Please indicate whether the reported IC50 of "Cc1nnc2n1-c1ccc(C#CCN3C(=O)c4ccccc4S3(=O)=O)cc1C(c1ccccc1F)=NC2" is strictly below 20 nM.
no

Take the molecule "Cc1nnc2n1-c1ccc(C#CCn3nc4ccccn4c3=O)cc1C(c1ccccc1F)=NC2" and say whether its IC50 is less than 20 nM.
no

IC50 under 20 nM? Item: COC1c2ccccc2C(=O)N1CC#Cc1ccc2c(c1)C(c1ccccc1F)=NCc1nnc(C)n1-2 (stereo not drawn)
no

Quick check: IC50 of "Cc1nnc2n1-c1ccc(C#CCn3ncc4ccccc43)cc1C(c1ccccc1F)=NC2" under 20 nM?
yes

Does the reported IC50 of "Cc1nnc2n1-c1ccc(C#CCN3C(=O)CCc4ccccc43)cc1C(c1ccccc1F)=N[C@H]2C" stay below 20 nM?
yes

Here's an entry: "Cc1nnc2n1-c1ccc(C#CCN3C(=O)c4ccccc4C3=O)cc1C(c1ccccc1F)=NC2" . Is its IC50 below 20 nM?
yes

Check if IC50 falls below 20 nM for "Cc1nnc2n1-c1ccc(C#CCN3C(=O)Cc4ccccc43)cc1C(c1ccccc1F)=NC2" .
yes

###

Attribute: pIC50
tested-on: PAF-binding, dog platelets (Canis lupus familiaris)
Construct: dog platelets; from tissue; host or cells: washed platelets from citrated dog blood
assay-notes: PAF binding assay (radiolabelled H-PAF, washed dog platelets)
condition-notes: Table II, triazolobenzodiazepines, 10 minutes at room temperature, read-out: PAF-binding IC-50
Field pIC50 (float): negative decimal logarithm of the concentration in molar.

{"columns": ["chem-smiles", "pIC50"],
 "data": [
  ["Cc1nnc2n1-c1ccc(C#CCn3c(=O)oc4ccccc43)cc1C(c1ccccc1Cl)=NC2", 7.70],
  ["Cc1nnc2n1-c1ccc(C#CCN3C(=O)c4ccccc4C3=O)cc1C(c1ccccc1Cl)=NC2", 7.70]
]}

# evaluate next
Fetch value of pIC50 on PAF-binding, dog platelets (Canis lupus familiaris) for "Cc1nnc2n1-c1ccc(C#CCN3C(=O)c4cccc5cccc3c45)cc1C(c1ccccc1F)=NC2" .
7.70
